ASSAYED_SYSTEM: Histidine-rich protein PFHRP-II (Plasmodium falciparum) (UniProt P05227)
Sequence (P05227 whole entry): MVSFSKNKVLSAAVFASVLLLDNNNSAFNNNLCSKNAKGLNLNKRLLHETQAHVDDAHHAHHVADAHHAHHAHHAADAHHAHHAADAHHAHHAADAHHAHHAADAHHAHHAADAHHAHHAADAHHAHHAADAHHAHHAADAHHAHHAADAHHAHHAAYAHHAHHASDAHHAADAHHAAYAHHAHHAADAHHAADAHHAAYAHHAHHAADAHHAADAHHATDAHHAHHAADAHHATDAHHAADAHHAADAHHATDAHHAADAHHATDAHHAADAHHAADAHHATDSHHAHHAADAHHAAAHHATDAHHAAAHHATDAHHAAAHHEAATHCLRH
ASSAY_PROTOCOL: Inhibition of acetate buffer-induced hemozoin formation at 1.25 to 25 mM/well after 48 hrs
Assay type: functional
Set-up: scale not given: the % may be the effect or the level left
READOUT: Activity

{"COMPOUND": "O=S(=O)(/C(Cl)=C/c1ccc(Cl)c(Cl)c1)c1ccccc1", "Activity": "< 5%"}

Challenge: Please report the recorded Activity for `N#Cc1ccc(/C=C(\Cl)S(=O)(=O)c2ccccc2)cc1` .
Response given: < 5%

Challenge: // same read-out, input: `O=S(=O)(/C(Cl)=C/c1ccc(Cl)cc1Cl)c1ccccc1`
Response given: < 5%

----------
# Activity per entry
ASSAYED_SYSTEM: Histidine-rich protein PFHRP-II (Plasmodium falciparum) (UniProt P05227)
ASSAY_PROTOCOL: Inhibition of acetate buffer-induced hemozoin formation at 1.25 to 25 mM/well after 48 hrs
Assay type: functional
Set-up: scale not given: the % may be the effect or the level left

{"COMPOUND_STRUCTURE": "COc1cc(/C=C(\\Cl)S(=O)(=O)c2ccccc2)cc(OC)c1OC", "READOUT": "Activity", "RESULT": "< 5%"}
{"COMPOUND_STRUCTURE": "O=S(=O)(/C(Cl)=C/c1ccc(F)cc1)c1ccccc1", "READOUT": "Activity", "RESULT": "< 5%"}
{"COMPOUND_STRUCTURE": "O=S(=O)(/C(Cl)=C/c1ccccc1Cl)c1ccccc1", "READOUT": "Activity", "RESULT": "< 5%"}
{"COMPOUND_STRUCTURE": "COc1cc(OC)c(OC)cc1/C=C(\\Cl)S(=O)(=O)c1ccccc1", "READOUT": "Activity", "RESULT": "< 5%"}
{"COMPOUND_STRUCTURE": "O=S(=O)(/C(Cl)=C/c1ccc2ccccc2c1)c1ccccc1", "READOUT": "Activity", "RESULT": "< 5%"}

Now examine the next entry.
Challenge: Can you share its Activity? I mean this compound: `O=S(=O)(/C(Cl)=C/c1ccc(Cl)cc1)c1ccccc1`
Response given: < 5%
